The entries below are paired with their reported inhibition at 10 µM.
# TARGET_SYSTEM: recombinant CREBBP bromodomain (Homo sapiens)
# Construct: recombinant CREBBP bromodomain obtained from BPS Bioscience, USA; purchased BPS Bioscience, USA
# ASSAY_PROCEDURE: CBP TR-FRET displacement assay
# Assay type: binding
# APPLIED_CONDITIONS: compound at 10 μM
Please state the figure in %; there is no need to write the unit.

Below, 3 molecules whose answers are already recorded.
Cc1cc2c(N3CCN(C)c4cc(-c5cnn(C)c5)c(C#N)cc43)nccc2[nH]c1=O [Example 54] = 91
CN1CCN(c2cccc3[nH]c(=O)ccc23)c2cc(C#N)c(-c3cnn(C)c3)cc21 [Example 52] = 83
Cc1cc2c(N3CCN(C)c4cc(-c5cnn(C)c5)c(C#N)cc43)cccc2n(C)c1=O [Example 42] = 96

Problem: Which inhibition at 10 µM value is on record for CNC(=O)c1ccc(-c2cc3c(cc2C(F)F)N(c2cc(OC)cc4c2cc(C)c(=O)n4C)CCC3)cn1 [Example 192] ?
Result: 47

Problem: What about COc1cc(N2CCN(C)c3cc(N4CCCCC4=O)ncc32)c2cc(C)c(=O)n(C)c2c1 [Example 126] ?
Result: 46

Problem: // next record COCCOc1cc(N2CCN(C)c3cc(-c4cnn(C)c4)c(C#N)cc32)c2cc(C)c(=O)n(C)c2c1 [Example 37]
Result: 100

Problem: Try the molecule COc1cc(N2CCN(C)c3ccc(S(C)(=N)=O)cc32)c2cc(C)c(=O)n(C)c2c1 (stereo not shown) [Example 101]
Result: 27

====

# TARGET_SYSTEM: recombinant P300 bromodomain (Homo sapiens, UniProt Q09472)
# Construct: recombinant P300 bromodomain obtained from BPS Bioscience, USA
# Sequence (Q09472 1049-1156 limits assumed): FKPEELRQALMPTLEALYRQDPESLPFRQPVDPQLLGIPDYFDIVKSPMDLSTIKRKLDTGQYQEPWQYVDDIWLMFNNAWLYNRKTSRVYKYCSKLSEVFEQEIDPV
# ASSAY_PROCEDURE: P300 TR-FRET displacement assay
# APPLIED_CONDITIONS: dose-response, read-out: IC50 (group A, B, C)
Measured IC50, listed per entry.

Problem: Which IC50 is listed for Cc1cc2c(N3CCN(C)c4cc(-c5cnn(C)c5)c(F)cc43)cc(N3CCOCC3)cc2n(C)c1=O ?
Result: < 25 nM

Problem: COc1cc(N2CCN(C)c3cc(-c4cnn(C)c4)c(C#N)cc32)c2cc(C)c(=O)n(C)c2c1 , same question.
Result: < 25 nM

Problem: What about this compound? COc1cc(N2CCN(C)c3cc(F)c(S(N)(=O)=O)cc32)c2cc(C)c(=O)n(C)c2c1
Result: 25 to 50 nM

Problem: And the next one, CNC(=O)c1cc2c(cc1C#N)N(c1cc(OC)cc3c1cc(C)c(=O)n3C)CCN2C ?
Result: < 25 nM

Problem: Now try Cc1cc2c(N3CCCc4cc(-c5cnn(C)c5)c(C(F)F)cc43)nc(N3CC4(COC4)C3)cc2n(C)c1=O .
Result: > 50000 nM

Problem: Please give the result for COc1cc(N2CCN(C)c3cc(-c4c(C)nn(C)c4C)c(C#N)cc32)c2cc(C)c(=O)n(C)c2c1 too.
Result: < 25 nM

Problem: Input Cc1cc2c(N3CCN(C)c4cc(-c5cnn(C)c5)ccc43)cc(OCC(=O)O)cc2n(C)c1=O
Result: < 25 nM

====

# TARGET_SYSTEM: recombinant BRD4 FL bromodomain (Homo sapiens, UniProt O60885)
# Construct: fused on or other part: 6xHis tag, inferred from detection with Mab ANTI 6HIS-XL665
# ASSAY_PROCEDURE: BRD4 FL TR-FRET displacement assay
# Format: binding
# APPLIED_CONDITIONS: BRD4 FL, compound at 10 μM; read-out: % Inhibition (10 μM)
# Protocol: The potency of compounds to inhibit BRD4 FL enzyme was tested in a TR-FRET displacement assay using recombinant BRD4 FL bromodomain obtained In-house. The assay buffer was 50 mM HEPES (pH 7.5), 50 mM NaCl, 500 μM CHAPS. […] Fluorescence emission of the samples at 665 and 615 nm were measured at an excitation of 340 nm and their ratio was plotted against the compound concentrations to generate dose-response curve. […]
OBSERVED_PROPERTY: inhibition at 10 µM (%)
A number alone suffices; assume %.

CNC(=O)C1CCN(c2cc3c(cc2C#N)N(c2cc(OC)cc4c2cc(C)c(=O)n4C)CCN3C)CC1 = 24
COc1cc(N2CCN(C)c3cc(N4CCCC(C#N)C4)ncc32)c2cc(C)c(=O)n(C)c2c1 (stereo not drawn) = 34
Cc1cc2c(N3CCN(C)c4cc(-c5cnn(C)c5)ncc43)cc(C3CCCCC3)cc2n(C)c1=O = 48

Problem: Give the measured inhibition at 10 µM of Cc1cc2c(N3CCCc4cc(-c5cnn(C)c5)c(C(F)F)cc43)nc(N3CC4CCC(C3)O4)cc2n(C)c1=O .
Result: 46

Problem: Continue with COc1cc(N2CCN(C)c3cc(F)c(S(=O)(=O)NC(C)=O)cc32)c2cc(C)c(=O)n(C)c2c1
Result: 48

Problem: Now this one: COc1cc(N2CCN(C)c3ccc(S(=O)(=O)NC(=O)C(F)(F)F)cc32)c2cc(C)c(=O)n(C)c2c1
Result: 15

Problem: Do the same for Cc1cc2c(N3CCCN(C)c4cc(-c5cnn(C)c5)c(C#N)cc43)cccc2[nH]c1=O please
Result: 48

Problem: # iterate: Cc1cc2c(N3CCN(C)c4cc(-c5cnn(C)c5)ncc43)cccc2n(C)c1=O
Result: 52

Problem: Queued: Cc1cc2c(N3CCN(C)c4cc(-c5cnn(C)c5)ncc43)cc(OC3CCOC3)cc2n(C)c1=O (stereo not drawn)
Result: 41

====

# TARGET_SYSTEM: recombinant CREBBP bromodomain (Homo sapiens, UniProt Q92793)
# Construct: recombinant CREBBP bromodomain obtained from BPS Bioscience, USA
# Sequence (Q92793 1085-1192 limits assumed): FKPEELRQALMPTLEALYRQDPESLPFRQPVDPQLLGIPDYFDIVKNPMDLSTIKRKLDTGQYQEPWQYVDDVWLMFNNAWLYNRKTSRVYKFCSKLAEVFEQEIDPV
# ASSAY_PROCEDURE: CBP TR-FRET displacement assay
# APPLIED_CONDITIONS: dose-response, read-out: IC50 (group A, B, C)
Listed next: entries and their corresponding IC50.

Examples with their reported IC50 follow.
COc1cc(N2CCN(C)c3cc(C4CC4)c(S(=O)(=O)NC(C)=O)cc32)c2cc(C)c(=O)n(C)c2c1 = < 50 nM
CNC(=O)C1CCN(c2cc3c(cc2C#N)N(c2cc(OC)cc4c2cc(C)c(=O)n4C)CCC3)CC1 = < 50 nM

Problem: Suppose we examine the compound COc1cc(N2CCN(C)c3cc(N4CCN(C(C)=O)CC4)c(C#N)cc32)c2cc(C)c(=O)n(C)c2c1 ; what IC50 value has been reported?
Result: < 50 nM

Problem: Would you mind doing Cc1cc2c(N3CCN(C(F)F)c4cc(-c5cnn(C)c5)ncc43)cc(N3CCOCC3)cc2n(C)c1=O as well?
Result: > 10 nM

Problem: Same for Cc1cc2c(N3CCN(C)c4cc(-c5cnn(C)c5)c(C#N)cc43)cc(OCc3ncco3)cc2n(C)c1=O
Result: < 50 nM

Problem: Now give it for COc1cc(N2CCN(C)c3cc(F)c(S(=O)(=O)NC(C)=O)cc32)c2cc(C)c(=O)n(C)c2c1 too.
Result: < 50 nM

Problem: # repeat for Cc1cc2c(N3CC(C)N(C)c4cc(-c5cnn(C)c5)ncc43)cc(N3CCOCC3)cc2n(C)c1=O (stereo not shown)
Result: 51 to 100 nM

====

Items are presented alongside their recorded pIC50.
# TARGET_SYSTEM: recombinant CREBBP bromodomain (Homo sapiens)
# Construct: recombinant CREBBP bromodomain obtained from BPS Bioscience, USA
# ASSAY_PROCEDURE: CBP TR-FRET displacement assay
# APPLIED_CONDITIONS: dose-response, read-out: IC50 (group A, B, C)
pIC50: −log10 of the molar value.

Examples from the recorded data:
Cc1cc2c(N3CCN(C)c4cc(S(=O)(=O)C(C)C)ncc43)cc(N3CCOCC3)cc2n(C)c1=O = 7.00 to 7.29
Cc1cc2c(N3CCNc4cc(-c5cnn(C)c5)ncc43)cc(N3CCOCC3)cc2n(C)c1=O = < 8.00
CNC(=O)c1ccc2c(c1)N(c1cc(OC)cc3c1cc(C)c(=O)n3C)CCN2C = < 8.00
Cc1cc2c(N3CCN(C)c4cc(-c5cnn(C)c5)c(C=O)cc43)cccc2[nH]c1=O = < 8.00
CNC(=O)C1CN(c2cc3c(cc2C#N)N(c2cc(OC)cc4c2cc(C)c(=O)n4C)CCN3C)C1 = 7.00 to 7.29
COc1cc(N2CCN(C)c3ccc([S+](C)[O-])cc32)c2cc(C)c(=O)n(C)c2c1 (stereo not drawn) [Example 99] = 7.00 to 7.29
COc1cc(N2CCN(C)c3cc(F)c(S(N)(=O)=O)cc32)c2cc(C)c(=O)n(C)c2c1 = > 7.30
Cc1cc2c(N3CCN(C)c4cc(-c5cnn(C)c5)ccc43)cc(OCC(=O)O)cc2n(C)c1=O = > 7.30
COc1cc(N2CCN(C)c3cc(N4CCC(NC(C)=O)CC4)c(C#N)cc32)c2cc(C)c(=O)n(C)c2c1 = > 7.30
COc1cc(N2CCCc3cc(N4CCN(C(C)=O)CC4)c(C#N)cc32)c2cc(C)c(=O)n(C)c2c1 = > 7.30

Problem: # get_value(readout= pIC50, system= recombinant CREBBP bromodomain (Homo sapiens)) for Cc1cc2c(N3CCN(C)c4cc(-c5cnn(C)c5)ncc43)cc(OC(F)F)cc2n(C)c1=O
Result: < 8.00

Problem: Now the same for Cc1cc2c(N3CCN(C)c4ccc(S(N)(=O)=O)cc43)cccc2n(C)c1=O
Result: 7.00 to 7.29

Problem: Also Cc1cc2c(N3CCN(C)c4ccc(C#N)cc43)cccc2[nH]c1=O ?
Result: > 7.30

Problem: Now consider CCn1c(=O)c(C)cc2c(N3CCN(C)c4cc(-c5cnn(C)c5)c(C#N)cc43)cccc21 and answer again.
Result: < 8.00

Problem: What do we get for Cc1cc2c(N3CCN(C)c4cc(-c5cnn(C)c5)ncc43)cc(N3CCS(=O)(=O)CC3)cc2n(C)c1=O ?
Result: < 8.00

Problem: What about this molecule? Cc1cc2c(N3CCN(C)c4cc(-c5cnn(C)c5)c(C#N)cc43)cc(OCC3CCCN(C)C3)cc2n(C)c1=O (single isomer, unassigned) [Example 247]
Result: > 7.30

Problem: Please give the result for Cc1cc2c(N3CCN(C)c4cc(-c5cnn(C)c5)c(C#N)cc43)cncc2n(C)c1=O too.
Result: > 7.30

Problem: Further, for Cc1cc2c(N3CCCc4cc(-c5cnn(C)c5)c(C(F)F)cc43)cc(N3CCOCC3)cc2n(C)c1=O ?
Result: > 7.30

Problem: Another molecule to look at: Cc1cc2c(N3CCCc4cc(-c5cnn(C)c5)c(C(F)F)cc43)nc(N3CCC4(COC4)C3)cc2n(C)c1=O
Result: > 7.30

Problem: Same lookup for CN1CCN(c2cccc3c2cc(N)c(=O)n3C)c2cc(C#N)c(-c3cnn(C)c3)cc21 , please.
Result: < 8.00

Problem: Another molecule to check: COc1cc(N2CCN(C)c3cc(C(=O)O)c(C#N)cc32)c2cc(C)c(=O)n(C)c2c1
Result: > 7.30

Problem: Record: COc1cc(N2CC(C)N(C)c3cc(-c4cnn(C)c4)c(C#N)cc32)c2cc(C)c(=O)n(C)c2c1 (stereo not drawn)
Result: > 7.30

Problem: Entry to check: COc1cc(N2CCN(C)c3cc(-c4c(C)nn(C)c4C)c(C#N)cc32)c2cc(C)c(=O)n(C)c2c1
Result: > 7.30

Problem: // repeat for COc1cc(N2CCN(C)c3cc(N4CCOCC4)c(C#N)cc32)c2cc(C)c(=O)n(C)c2c1 and report
Result: > 7.30

Problem: Would you mind doing COc1cc(N2CCN(C)c3ccc(CC(=O)NO)cc32)c2cc(C)c(=O)n(C)c2c1 as well?
Result: < 8.00

Problem: Same read-out for Cc1cc2c(N3CCCc4cc(-c5cnn(C)c5)c(C(F)F)cc43)nc(N3C[C@@H](O)[C@H](O)C3)cc2n(C)c1=O ?
Result: > 7.30

Source: patent US20230322724A1
